assay: chemical genetic growth profiling, strain panel (AID 1159580);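 also: tested at 20 µM; growth read once vehicle control cultures reached saturation at 30 °C; 1 = growth at the plate median or of vehicle wells; lower values mean less growth of the strain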; details: S. cerevisiae deletion strains, growth OD, locus YER016W, strain bim1, hits give low values
The whole screen tested about 5,500 compounds, of which about 2,000 (36%) were called active. Another 18% or so got no clear call; they are omitted. The list shows a part of the results.
measured_property: normalized growth
One number for each entry.

These solved cases illustrate the format of a correct answer.
compound	normalized growth
CC1=C(C(C)O)C2=NC1C=c1[nH]c(c(C)c1C(C)O)=Cc1[nH]c(c(CCC(=O)O)c1C)C=c1[nH]c(c(C)c1CCC(=O)O)=C2 (stereo not given)	0.989
COc1cc2c(cc1OC)C(=O)OC2	0.999
COc1ccc2c(c1)OCc1c-2oc2cc(OC)ccc12	0.87

Give measured normalized growth for every item shown.
1. C[N+](C)(C)CCOC(N)=O
2. CN(C)C(=S)SSC(=S)N(C)C
3. CC(C)(O)[C@@H]1[C@H]2OC(=O)[C@@H]1[C@]1(O)C[C@H]3O[C@]34C(=O)O[C@H]2[C@]14C

[1.01, 0.0587, 0.997]

Hi there! I need normalized growth for each item below, if you can.
1. CCOC(=O)c1c(C)c(Cl)c(O)c(Cl)c1O
2. COc1ccc2c3c1O[C@H]1C[C@@H](O)C=C[C@@]31CCN(C)C2
3. CN1CCC(=C2c3ccccc3Sc3ccccc32)CC1
4. CN(C)CC/C=C1\c2ccccc2Sc2ccc(Cl)cc21
5. C[C@]12CCC(=O)C=C1CCC1C2CC[C@@]2(C)C1CC[C@@H]2O (stereo not given in full)
6. CC(=O)NC1SCCC1=O (stereo not given)
7. CC(=O)O[C@@H]1C[C@@]2(C)C(CC[C@@H]2C(C)=O)C2CCC3=CC(=O)CC[C@]3(C)C21 (stereo not given in full)
8. ClC1=C(Cl)C2(Cl)C3C4C=CC(C4)C3C1(Cl)C2(Cl)Cl (stereo not given)

[0.559, 1.01, 1.03, 0.953, 0.989, 0.982, 1.02, 0.994]

Provide the reported normalized growth of each entry below, same order.
1. Oc1cc(Cl)ccc1Oc1ccc(Cl)cc1Cl
2. CC(C)c1c(C(=O)c2ccccc2)c(-c2ccccc2)c(-c2ccc(F)cc2)n1CC[C@@H](O)C[C@@H](O)CC(=O)O
3. CC1CC2C3CC(F)C4=CC(=O)C=CC4(C)C3(F)C(O)CC2(C)C1(O)C(=O)CO (stereo not given)
4. Cc1cccc(C)c1OCC(C)N (stereo not given)
5. C=C(C)C1CNC(C(=O)O)C1CC(=O)O (stereo not given)
6. COc1ccc2c(C)cc(=O)oc2c1

1. 0.0591
2. 0.949
3. 0.995
4. 1.01
5. 0.978
6. 0.998

Please state, for each entry, its recorded normalized growth.
1. CCCCNc1cc(C(=O)O)cc(S(N)(=O)=O)c1Oc1ccccc1
2. CCOC(=O)C(Cc1ccc(O)cc1)NC(C)=O (stereo not given)

1: 0.987; 2: 1.03

For each of the items listed, what is its normalized growth?
1. CC1CC2C3CCC4=CC(=O)C=C[C@]4(C)[C@@]3(F)[C@@H](O)C[C@]2(C)[C@@]1(O)C(=O)CO (stereo not given in full)
2. CC1=C(CC(=O)O)c2cc(F)ccc2/C1=C\c1ccc(S(C)=O)cc1 (stereo not given)
3. NC(=O)c1ccc[n+]([C@@H]2O[C@H](COP(=O)([O-])OP(=O)(O)OC[C@H]3O[C@@H](n4cnc5c(N)ncnc54)[C@H](O)[C@@H]3O)[C@@H](O)[C@H]2O)c1
4. O=C1C=CC(=C(c2ccc(O)cc2)c2ccc(O)cc2)C=C1
5. CCN(CC)CCNC(=O)c1cc(Br)c(N)cc1OC
6. CCCCCCCCCCCCCCCC(=O)OC/C=C(C)/C=C/C=C(C)/C=C/C1=C(C)CCCC1(C)C
7. CN1CCCN=C1COC(=O)C(O)(c1ccccc1)C1CCCCC1 (stereo not given)
8. CC(=O)N[C@@H](CC(C)C)C(=O)O

[0.95, 1, 1.04, 0.983, 0.997, 1.02, 0.994, 1.01]

----------
assay: chemical genetic growth profiling, strain panel (AID 1159580);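 also: tested at 20 µM; growth read once vehicle control cultures reached saturation at 30 °C; 1 = growth at the plate median or of vehicle wells; lower values mean less growth of the strain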; conditions: S. cerevisiae deletion strains, growth OD, locus YDL185W, strain tfp1, hits give low values
In all, about 5,500 compounds went through this assay and about 2,000 (36%) were called active. Roughly 18% stayed inconclusive and do not appear here. This is one part of the list.
measured_property: normalized growth
Answers are plain numbers.

molecule	normalized growth
CCS(=O)CCSP(=O)(OC)OC (stereo unspecified)	1.01

Batch request: normalized growth per item, same order as input.
1. CNC(C)[C@H](O)c1ccccc1 (stereo partly specified)
2. CC(C)CC(NC(=O)C(Cc1ccccc1)NC(=O)CNC(=O)CNC(=O)C(N)Cc1ccc(O)cc1)C(=O)O (stereo unspecified)
3. COc1cc2c(cc1OC)C1C(=O)c3c(O)cc4c(c3OC1CO2)C=CC(C)(C)O4 (stereo unspecified)
4. CC(C[N+](C)(C)C)OC(N)=O (stereo unspecified)
5. CN1CCCN=C1COC(=O)C(O)(c1ccccc1)C1CCCCC1 (stereo unspecified)

[0.991, 0.973, 1.01, 0.981, 1]

----------
experiment: chemical genetic growth profiling, strain panel (AID 1159580);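 also: tested at 20 µM; growth read once vehicle control cultures reached saturation at 30 °C; 1 = growth at the plate median or of vehicle wells; lower values mean less growth of the strain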; conditions: S. cerevisiae deletion strains, growth OD, locus YOR265W, strain rbl2, hits give low values
Among all 5,500 compounds or so, about 2,000 (36%) were called active. About 18% were inconclusive and are not listed. The list shows a part of the results.
Kindly state normalized growth for each of the entries shown.
One number for each entry.

compound	normalized growth
COC1=CC(=O)C[C@@H](C)[C@]12Oc1c(Cl)c(OC)cc(OC)c1C2=O	0.978
COc1cc(/C=C/C(=O)/C=C(O)/C=C/c2ccc(O)c(OC)c2)ccc1O	0.159
CN1CCC(=C2c3ccccc3CC(=O)c3sccc32)CC1	0.988
CC(=O)OCC(=O)[C@H]1CCC2C3CCC4=CC(=O)CC[C@]4(C)C3CC[C@@]21C (stereo partly specified)	0.98
NC(=O)C(c1ccccc1)(c1ccccc1)C1CCN(CCc2ccc3c(c2)CCO3)C1 (stereo unspecified)	1.05
C[C@H]1CC2C([C@@H](O)C[C@@]3(C)C2CC[C@]3(O)C(=O)CO)[C@@]2(C)C=CC(=O)C=C12 (stereo partly specified)	0.995

Lab note: each compound below needs its normalized growth filled in.
1. Oc1cc(Cl)ccc1Oc1ccc(Cl)cc1Cl
2. COc1ccc2c(c1)O[C@@H]1COc3cc(OC)c(OC)cc3[C@@H]1C2=O
3. CC(=O)OC(C)(C)[C@@H]1Cc2cc3ccc(=O)oc3cc2O1

0.0537
0.797
0.976

// input: 4 compounds below; output: normalized growth for each
1. COc1cc(O)c(C(=O)/C=C/c2ccc(OC)c(O)c2)c(OC)c1
2. CO[C@H]1[C@H](O)[C@H](O[C@H]2CC[C@]3(C)C4CC[C@]5(C)C(C6=CC(=O)OC6)CC[C@]5(O)C4CC[C@@H]3C2)O[C@@H](C)[C@@H]1O (stereo partly specified)
3. CC1=C(C(C)O)C2=NC1C=c1[nH]c(c(C)c1C(C)O)=Cc1[nH]c(c(CCC(=O)O)c1C)C=c1[nH]c(c(C)c1CCC(=O)O)=C2 (stereo unspecified)
4. O=C(O)c1cc2ccccc2[nH]1

1. 0.988
2. 1.01
3. 0.995
4. 0.991

Batch of 3 compounds: report normalized growth for each.
1. CCOC(=O)CCC(=O)O[C@H]1[C@H](O[C@@H]2[C@@H](C)[C@H](O[C@H]3C[C@@](C)(OC)[C@@H](O)[C@H](C)O3)[C@@H](C)C(=O)O[C@H](CC)[C@@](C)(O)[C@H](O)[C@@H](C)C(=O)[C@H](C)C[C@@]2(C)O)O[C@H](C)C[C@@H]1N(C)C
2. COc1cc2c(cc1OC)[C@@H]1C(=O)c3ccc(OC)c(CC=C(C)C)c3O[C@@H]1CO2
3. COc1ccc2c(c1OC)C(=O)O[C@H]2[C@H]1c2cc3c(cc2CCN1C)OCO3

[0.984, 1.02, 1]

Parameter requested: normalized growth. Apply to each item below.
1. CCOC(=O)c1c(C)cc(O)c(C=O)c1O
2. CCN(CC)CCNC(=O)c1cc(Br)c(N)cc1OC
3. COc1cc(NS(=O)(=O)c2ccc(N)cc2)nc(OC)n1
4. Cc1[nH]c(C)c(Cl)c(=O)c1Cl
5. CN1CCC(=C2c3ccccc3Sc3ccccc32)CC1
6. COc1cc2c(cc1OC)[C@@H]1C(=O)c3ccc4c(c3O[C@@H]1CO2)C=CC(C)(C)O4
7. C=C1C2CC[C@H]3[C@]4(C)C[C@H](OC5OC(CO)C(OS(=O)(=O)O)C(OS(=O)(=O)O)C5OC(=O)CC(C)C)C[C@@H](C(=O)O)[C@H]4CC[C@]3(C2)[C@H]1O (stereo partly specified)
8. CC1=C(C/C=C(\C)CCC[C@H](C)CCC[C@H](C)CCCC(C)C)C(=O)c2ccccc2C1=O

[0.697, 0.996, 0.992, 1.01, 1.02, 1.01, 1.01, 0.985]
